Molecular target: α7-subtype of nicotinic receptors (Rattus norvegicus)
Sequence (Q05941 23-502): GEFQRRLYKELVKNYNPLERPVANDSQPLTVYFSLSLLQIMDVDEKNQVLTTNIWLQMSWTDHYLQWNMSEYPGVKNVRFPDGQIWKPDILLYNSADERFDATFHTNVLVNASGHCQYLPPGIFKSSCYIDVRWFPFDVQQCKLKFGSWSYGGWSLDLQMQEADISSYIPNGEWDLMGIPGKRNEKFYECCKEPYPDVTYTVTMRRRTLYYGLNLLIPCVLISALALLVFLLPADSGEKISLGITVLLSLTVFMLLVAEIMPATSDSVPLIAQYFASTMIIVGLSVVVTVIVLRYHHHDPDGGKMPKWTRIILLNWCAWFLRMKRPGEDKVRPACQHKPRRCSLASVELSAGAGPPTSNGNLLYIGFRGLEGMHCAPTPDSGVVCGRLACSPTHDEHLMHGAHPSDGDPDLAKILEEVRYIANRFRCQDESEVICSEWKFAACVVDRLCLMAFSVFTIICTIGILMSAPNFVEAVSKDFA
pIC50: −log10 of the molar value.
measure_name: pIC50

Quick check: pIC50 of c1cc2c(cc1-c1nnc(N3CCN4CCC3C4)o1)OCO2 (stereo not shown) ?
> 7.00
